target-desc: T1, murine IL-11 (mouse, UniProt P47873 22-199)
T1 sequence: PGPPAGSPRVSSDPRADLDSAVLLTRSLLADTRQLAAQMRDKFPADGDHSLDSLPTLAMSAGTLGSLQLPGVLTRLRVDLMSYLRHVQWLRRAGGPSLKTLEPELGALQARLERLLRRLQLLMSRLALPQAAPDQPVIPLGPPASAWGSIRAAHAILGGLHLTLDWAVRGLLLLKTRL
assay-explanation: cell-based or functional assay
In this section we review reported RGA Efficacy (%) values for a set of binders.
Report the figure in % without appending any unit label.

Use the examples below as a reference point.
TPP-26319 (antibody, V domains shown) VH: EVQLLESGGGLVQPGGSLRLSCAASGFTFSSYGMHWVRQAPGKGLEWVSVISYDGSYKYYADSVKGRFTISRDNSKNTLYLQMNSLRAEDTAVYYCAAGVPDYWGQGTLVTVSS VL: QSVLTQPPSASGTPGQRVTISCTGSSSNIGAGYDVHWYQQLPGTAPKLLIYSNNEKPSGVPDRFSGSKSGTSASLAISGLRSEDEADYYCAAWDDSLNGPVFGGGTKLTVL = 91.1
TPP-26290 (antibody, V domains shown) VH: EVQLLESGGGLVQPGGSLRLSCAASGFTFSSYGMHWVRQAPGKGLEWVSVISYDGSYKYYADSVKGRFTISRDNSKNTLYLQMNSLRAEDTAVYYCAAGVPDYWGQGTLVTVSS VL: QSVLTQPPSASGTPGQRVTISCTGSSSNIGAGMDVHWYQQLPGTAPKLLIYSNNERPSGVPDRFSGSKSGTSASLAISGLRSEDEADYYCAAWDDSLNGPVFGGGTKLTVL = 95.1
TPP-26323 (antibody, V domains shown) VH: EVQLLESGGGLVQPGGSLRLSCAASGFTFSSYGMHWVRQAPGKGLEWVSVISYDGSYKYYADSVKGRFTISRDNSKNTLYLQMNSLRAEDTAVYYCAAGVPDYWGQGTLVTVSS VL: QSVLTQPPSASGTPGQRVTISCTGSSSNIGAGYDVHWYQQLPGTAPKLLIYSNNERPSGVPDRFSGSKSGTSASLAISGLRSEDEADYYCAAWDGSLNGPVFGGGTKLTVL = 95.9
TPP-26306 (antibody, V domains shown) VH: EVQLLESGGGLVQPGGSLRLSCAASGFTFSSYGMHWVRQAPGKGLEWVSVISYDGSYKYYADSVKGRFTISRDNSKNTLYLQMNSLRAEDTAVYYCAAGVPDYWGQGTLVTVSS VL: QSVLTQPPSASGTPGQRVTISCTGSSSNIGAGYDVHWYQQLPGTAPKLLIYSNNERPSGVPDRFSGSKSGTSASLAISGLRSEDEADYYCAAWDQSLNGPVFGGGTKLTVL = 96.4

Alright, here's another binder for you.
Prompt: Retrieve RGA Efficacy (%) measured for TPP-26320 (antibody, V domains shown) VH: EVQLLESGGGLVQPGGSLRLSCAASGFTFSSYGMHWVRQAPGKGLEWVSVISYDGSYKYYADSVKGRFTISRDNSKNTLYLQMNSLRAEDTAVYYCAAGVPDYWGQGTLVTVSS VL: QSVLTQPPSASGTPGQRVTISCTGSSSNIGAGYDVHWYQQLPGTAPKLLIYSNEERPSGVPDRFSGSKSGTSASLAISGLRSEDEADYYCAAWDDSLNGPVFGGGTKLTVL and print it.
Response: 100
